The reported measurements were obtained from paper PMC2756588.

- Experimental target: T1, Nbp2, Q12163
- T1 sequence (Q12163 103-180, looked up): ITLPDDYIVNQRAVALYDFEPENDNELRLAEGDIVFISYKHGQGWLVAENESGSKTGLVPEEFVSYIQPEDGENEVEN
- Experiment: SPOT array
- Condition notes: median of control spots 357

Binder	SPOT intensity
QFDLKMPSKPIHNLK	0
VQKRKLPLPGSIASA	1
GKFIPSRPAPKPPSS	2880
NMLSRPRLAKLPSIR	0
NHSRSLFSLPGNQQS	77
TPRLSLPRLPNKHHW	0
QNTPPLPPKPKSPHL	1
VTHRLRISIPGITGR	72
FPGKKSPRLPHRNKK	0
WTQRRGPLVVYAEDN	0
TKPTPPPKPSHLKPK	1
NQARKPFLLPATELS	4
FHLNPKRSAVLYDRP	0
NPNRRAPRRPLSTQH	626
SSTPTTPERPKRKSG	0
KRKRFNLLLPKPYLT	53
LPPPPPPPPPPPLPQ	0
HGKRRAPLLLAKLDV	1
KDKKTKPTPPPKPSH	2
NNNKMRPHLPPLSSG	12
AAHKTKPSIPPKKVE	0
DKSRPPRPPPKPLHL	0
PALPSLPPPPLLNVD	0
NSMRPPLLIPAATTK	9
NENKKLPPAPTVFGL	0
SNRRPVPRRPSQPLN	46
KLSRGRYGLPLSSRP	2
RPKRRAPPPVPKKPS	887
TKHKAPPPPPPTAET	0
FYNRTAFQLPGDARV	2
